System: CAL-120
Test: normalised response (% of control), CellTiter-Glo; higher = more viable cells (100 = DMSO, 0 = benzethonium chloride kill control)
Details: incubation time: 72 h
Collected normalised response values appear next to each entry.
metric: normalised response (%)

compound: CO[C@H](C(=O)[C@@H](O)[C@@H](C)O)[C@@H]1Cc2cc3cc(O[C@H]4C[C@@H](O[C@@H]5C[C@@H](O)[C@H](O)[C@@H](C)O5)[C@H](O)[C@@H](C)O4)c(C)c(O)c3c(O)c2C(=O)[C@H]1O[C@H]1C[C@@H](O[C@@H]2C[C@@H](O)[C@@H](O[C@@H]3C[C@](C)(O)[C@H](O)[C@@H](C)O3)[C@@H](C)O2)[C@H](O)[C@@H](C)O1 [Plicamycin] (10 nM)
target: CAL-120
measValue: 101
--
compound: CC(C)n1nc(-c2ccc3oc(N)nc3c2)c2c(N)ncnc21 [INK128] (100 nM)
target: CAL-120
measValue: 30.6
--
compound: COc1cc(Nc2ncc(F)c(Nc3ccc4c(n3)N(COP(=O)(O)O)C(=O)C(C)(C)O4)n2)cc(OC)c1OC [Fostamatinib] (250 nM)
target: CAL-120
measValue: 86.9
--
compound: CC(C)C[C@H](NC(=O)[C@H](CCc1ccccc1)NC(=O)CN1CCOCC1)C(=O)N[C@@H](Cc1ccccc1)C(=O)N[C@@H](CC(C)C)C(=O)[C@@]1(C)CO1 [Carfilzomib] (1 nM)
target: CAL-120
measValue: 105
--
compound: O=C(c1cc(Cc2n[nH]c(=O)c3ccccc23)ccc1F)N1CCN(C(=O)C2CC2)CC1 [Olaparib] (1 nM)
target: CAL-120
measValue: 92.4
--
compound: CC/C(=C(\c1ccccc1)c1ccc(OCCN(C)C)cc1)c1ccccc1 [Tamoxifen] (1 nM)
target: CAL-120
measValue: 99
--
compound: O=C(O)CC[C@H]1CC[C@@](c2cc(F)ccc2F)(S(=O)(=O)c2ccc(Cl)cc2)CC1 [MK-0752] (100 nM)
target: CAL-120
measValue: 95.6

====

// reported normalised viability per item
System: MDA-MB-436
Assay: normalised viability (% of control), CellTiter-Blue; higher = more viable cells (about 100 = DMSO control)
Conditions: 10 nM; incubation time: 72 h

compound: Cn1nnc2c(C(N)=O)ncn2c1=O [Temozolomide]
normalised viability / %: 102
--
compound: C[C@]12C=CC(=O)C=C1CC[C@@H]1[C@@H]2C(=O)C[C@@]2(C)[C@H]1CC[C@]2(O)C(=O)CO
normalised viability / %: 91.3
--
compound: C[C@@H]1C[C@H]2[C@@H]3CCC4=CC(=O)C=C[C@]4(C)[C@@]3(F)[C@@H](O)C[C@]2(C)[C@@]1(O)C(=O)CO
normalised viability / %: 127
--
compound: C[C@@H](CN1CC(=O)NC(=O)C1)N1CC(=O)NC(=O)C1
normalised viability / %: 91.8

====

Below: a set of entries, each annotated with reported EC50, CellTiter-Glo.
Test system: HDQ-P1
Conditions: 72 h
metric: EC50, CellTiter-Glo (nM)

structure: COc1cc2c(cc1-c1c(C)noc1C)ncc1[nH]c(=O)n([C@H](C)c3ccccn3)c12
valueUnit: nM
ltGtEq: =
measValue: 1340

structure: CC[C@@H]1C(=O)N(C)c2cnc(Nc3ccc(C(=O)N[C@H]4CC[C@H](N5CCN(CC6CC6)CC5)CC4)cc3OC)nc2N1C(C)C
valueUnit: nM
ltGtEq: =
measValue: 53.1

structure: Nc1nc(Cl)nc2c1ncn2[C@@H]1O[C@H](CO)[C@@H](O)[C@@H]1F
valueUnit: nM
ltGtEq: =
measValue: 482

structure: COc1cc(Nc2ncc(F)c(Nc3ccc4c(n3)N(COP(=O)(O)O)C(=O)C(C)(C)O4)n2)cc(OC)c1OC
valueUnit: nM
ltGtEq: =
measValue: 1660

structure: CN1CCN(c2nc(C3=C(c4c[nH]c5ccccc45)C(=O)NC3=O)c3ccccc3n2)CC1
valueUnit: nM
ltGtEq: >
measValue: 10000
